- System: OVCAR-4 ovarian
- test name: NCI-60 one-dose screen, 48 h
- experimental parameters: 10 µM
- Procedure: Growth inhibition of the OVCAR-4 human tumor cell line is measured as a screen for anti-cancer activity. Cells are grown in 96 well plates and exposed to the test compound for 48 hours. Compounds are tested at a single concentration, which is 10^-5 M for most compounds. The reported endpoint is percent growth (GI% or GIPRCNT), where numbers from 0 - 100% represent growth inhibition, and numbers from -100% - 0 represent cell death. For example, a value of 40 represents 60% growth inhibition. […]
Compounds without any hit were thinned out: in the full panel of roughly 83,000, 20% have a hit. Calls of active or inactive are those of the source. Rule for the calls: active = growth percent below 10; inactive = the rest.
Possible outcomes: T (active), F (inactive)

molecule: COc1ccc(NC(=O)C2CC3C=CC2C3)c([N+](=O)[O-])c1 (centres undefined)
label: F
//
molecule: COc1ccc(-c2nc(-c3nc4ccc(C)cc4[nH]3)cc3c2[nH]c2ccccc23)cc1
label: F
//
molecule: CCN(CC)c1ccc(/C=C2\SC(=O)C(Nc3nnc(-c4cccnc4SCc4ccccc4)o3)C2=O)cc1 (centres undefined)
label: F
//
molecule: COc1ccc(-c2onc(N)c2-c2cc(OC)c3c(c2)OCO3)cc1
label: F
//
molecule: CN(C)CCCN1c2ccccc2CCc2ccc(Cl)cc21
label: F
//
molecule: Cc1ccc(NC(=S)NNC(=S)Nc2ccc(C)cc2)cc1
label: F
//
molecule: CC1=NN(C(=O)c2nn(-c3ccc(Cl)cc3)cc2O)C(=O)C1
label: F
//
molecule: CCCCCCCCCCCCCCCCCC[n+]1ccc2c(C)c3c(c(C)c2c1)c1cc(O)ccc1n3CC
label: F
//
molecule: CCCCN1C(=O)CC(SC2CC(=O)N(CCCC)C2=O)C1=O (centres undefined)
label: F
//
molecule: COc1ccc(/C=C2\CCCC3C2=Nc2ccccc2NC3c2ccc(OC)cc2)cc1 (centres undefined)
label: F
//
molecule: Nc1ccccc1NC(=O)c1ccc(CCCC(=O)Nc2ccc(C3CC3N)cc2)cc1 (centres undefined)
label: F
//
molecule: COc1cc(-c2csc(NC(=O)Nc3cc(C(F)(F)F)cc(C(F)(F)F)c3)n2)cc(OC)c1OC
label: F
//
molecule: CN1CCN(CCC(=O)Nc2cccc(-n3cc(-c4ccncc4)c(-c4ccc(Cl)c(O)c4)n3)c2)CC1
label: F
//
molecule: CCOC(=O)c1sc2ncnc(Nc3ccc4c(cnn4C(=O)Nc4ccccc4)c3)c2c1C
label: T
//
molecule: O=C(COc1cccc(/C=C2\CSc3ccccc3C2=O)c1)c1ccc(Cl)cc1
label: F
//
molecule: CSc1ccc(-c2cc(-c3ccc(NC(=O)CCCN4CCCC4)cc3)nc(-c3ccc(NC(=O)CCCN4CCCC4)cc3)c2)cc1
label: F
//
molecule: CN(C)CCCOc1cccc(NC2=C(Cl)C(=O)C(Nc3cccc(OCCCN(C)C)c3)=C(Cl)C2=O)c1
label: T
//
molecule: COc1nc2c(c(=O)n1C)CN(c1ccccc1)C(=O)C(C)N2 (centres undefined)
label: F
//
molecule: CCOC(=O)c1cc(C(=O)c2cc(OC)c(OC)c(OC)c2)n2ccc(-c3cc[n+](CC(=O)c4cc(OC)c(OC)c(OC)c4)cc3)cc12
label: T

###

- System: A498 renal
- test name: NCI-60 one-dose screen, 48 h (100 = growth as untreated, 0 = no growth, -100 = all killed)
- experimental parameters: 10 µM
This is part of a sample that, as a whole, favours compounds with a hit. Of some 83,000 tested, about 20% had one in any assay.

compound: Cc1cccc(N=Cc2ccccc2O)c1C
growth, %: 106
--
compound: CCOC(=O)c1cc(C(=O)c2cc(OC)cc(OC)c2)n2nc(C)ccc12
growth, %: -1.92
--
compound: O=[N+]([O-])c1ccc(/C(=C/c2ccccc2)[n+]2ccccc2)cc1
growth, %: 101
--
compound: COc1cc(-c2csc(NC(=O)Nc3ccc(Cl)c(C(F)(F)F)c3)n2)cc(OC)c1OC
growth, %: -15.7
--
compound: Clc1ccc(Cc2ccncc2)cc1
growth, %: 104
--
compound: CCOC(=O)c1cc(C(=O)c2cc(OC)c(OC)c(OC)c2)n2ccc(-c3cc[n+](CC(=O)c4cc(OC)c(OC)c(OC)c4)cc3)cc12
growth, %: 80.4
--
compound: CNC(=O)c1c(I)c(NC(C)=O)c(I)c(C(=O)O)c1I
growth, %: 99.3
--
compound: CCOC(=O)c1cocc1C(=O)O
growth, %: 112
--
compound: O=C(Cn1cc(CO)nn1)Nc1nc2ccccc2s1
growth, %: 118
--
compound: O=C(Nc1ccc(OCc2nnc(-c3ccc(Cl)cc3)o2)c(F)c1)Nc1ccc(Cl)c(C(F)(F)F)c1
growth, %: -23.7
--
compound: C=C(NC(=O)C(=C)NC(=O)c1csc(C2=NC3c4csc(n4)C4NC(=O)c5csc(n5)C(C(C)(O)C(C)O)NC(=O)C5CSC(=N5)C(=CC)NC(=O)C(C(C)O)NC(=O)c5csc(n5)C3(CC2)NC(=O)C(C)NC(=O)C(=C)NC(=O)C(C)NC(=O)C(C(C)CC)NC2C=Cc3c(C(C)O)cc(nc3C2O)C(=O)OC4C)n1)C(N)=O (centres undefined)
growth, %: -41.5
--
compound: COc1cc(-c2nn(-c3ccc(NC(=O)NCCNS(=O)(=O)c4ccc(F)cc4)cc3)cc2-c2ccncc2)ccc1Cl
growth, %: -19.1
--
compound: O=C(N/N=C/c1ccc([N+](=O)[O-])cc1)c1ccccc1Nc1cccc(C(F)(F)F)c1
growth, %: -6.91
--
compound: CN(C)CCCN1c2ccccc2CCc2ccc(Cl)cc21
growth, %: 39.9
--
compound: O=C(CNc1nnc(-c2cccnc2SCc2ccccc2)s1)Nc1nc(Cl)cc(Cl)n1
growth, %: 121
--
compound: CN(C)CCCOc1ccc(OCCCN(C)C)c2c1C(=O)c1ccccc1C2=O
growth, %: -31.9
--
compound: CS(=O)(=O)c1nccc(-c2c(-c3cccc(OCCN4CCOCC4)c3)nc3sccn23)n1
growth, %: 59.2
--
compound: N#CC1=C(N)Oc2cc(N)ccc2C1c1cccnc1 (centres undefined)
growth, %: 93.5
--
compound: COC(=O)CC[C@@H](C)[C@H]1CC[C@H]2[C@@H]3CC[C@@H]4C[C@H](O)CC[C@]4(C)[C@H]3C[C@H](O)[C@]12C
growth, %: 119
--
compound: Clc1ccc2c(c1)C(N1CCNCC1)=Nc1ccccc1O2
growth, %: 25.2
--
compound: Clc1ccc(/C=C2\CCCC3C2=Nc2ccccc2NC3c2ccc(Cl)cc2)cc1 (centres undefined)
growth, %: 67.2
--
compound: COC1=CC(=O)OC(c2ccc(OC)cc2)C1 (centres undefined)
growth, %: 96.4
--
compound: CCc1ccc(-c2ccc(-n3nc(C)c4c(N)nc(Cc5ccccc5)nc43)cc2)cc1
growth, %: 73.4
--
compound: COc1ccc(/C=C/c2nnc(/C=C/c3ccc(OC)c(OC)c3)o2)cc1OC
growth, %: 31.4
